# measurementTarget: von Willebrand factor (VWF) (Homo sapiens, UniProt P04275 P04275:764-2813)
# protocolDetails: filter; Bmax 78%; 2 mM CaCl2, 37 C
# reportedConditions: tags: factor VIII free, Haematologic Technologies Inc; label: 5'-32P
# Method: Affinity constants (Kd values) were determined using double-filter nitrocellulose filter binding assays (Rusconi et al, Thromb. Haemost. $4:841-848 (2000)). All binding studies were performed in binding buffer F (20 mM HEPES, pH 7.4, 150 mM NaCl, 2 mM CaCl₂, and 0.01% BSA) at 37° C. […] The fraction of the nucleic acid-protein complex which bound to the nitrocellulose membrane was quantified with a phosphorimager (Molecular Dynamics, Sunnyvale, Calif.). […]
pKd: −log10 of the molar value.
experimentalReadout: pKd

>>> endpointresult("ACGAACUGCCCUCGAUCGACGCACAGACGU (ssRNA, 2'-F C and U; 2'-OH A and G; 3' idT) [T59]")
8.06
>>> endpointresult("ACGAACUGCCCUCGAUCGACGCACAGACGUUUUUU (ssRNA, rAfCrGmAmAmCfUrGfCfCfCfUmCmGmAmUmCmGrAfCrGfCrAmCmAmGmAfCrGfUmUmUmUmUmU-idT) [T79 vrt1]")
8.72
>>> endpointresult("ACGAACUGCCCUCAGCUACUUUCAUGUUGCUGACGCACAGACGU (ssRNA, rAfCmGrArAfCfUrGfCfCfCfUfCrArGfCfUrAfCfUfUfUfCrAfUrGfUfUrGfCfUrGrAfCrGfCrAfCrArGrAmCrGfU-idT) [T25 vrt16]")
8.37
